biological target: Fuc(a1-2)[Gal(a1-3)]Gal(b1-4)GlcNAc; experiment: glycan array binding signal (z-score within array); higher = stronger binding; conditions: glycan notation: IUPAC condensed, linker removed
Shown is part of a subset that was picked to be rich in the strongest signals.
# glycan array binding signal (z-score) per entry

Example entries begin here.
1. SLR2P3F12 (Tachypleus tridentatus), TAL2_TACTR (protein) MEKGTPPTHDSDNWMGRAKKIGNGGWNQFQFLFFDPNGYLYAVSKDKLYKASPPQSDTDNWIARATEIGSGGWSGFKSLFFHPNGYLYAVHGQRLYKALPPVSNQD :: -0.417
2. EULS2 M1 (Oryza sativa) (protein) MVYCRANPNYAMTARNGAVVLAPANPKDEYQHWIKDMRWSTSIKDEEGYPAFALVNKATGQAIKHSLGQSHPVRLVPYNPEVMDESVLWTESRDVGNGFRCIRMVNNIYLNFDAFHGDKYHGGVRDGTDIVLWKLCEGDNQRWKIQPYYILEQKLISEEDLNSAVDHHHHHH :: -0.349

Please give the documented glycan array binding signal (z-score) of DrGal9 (Danio rerio) (protein) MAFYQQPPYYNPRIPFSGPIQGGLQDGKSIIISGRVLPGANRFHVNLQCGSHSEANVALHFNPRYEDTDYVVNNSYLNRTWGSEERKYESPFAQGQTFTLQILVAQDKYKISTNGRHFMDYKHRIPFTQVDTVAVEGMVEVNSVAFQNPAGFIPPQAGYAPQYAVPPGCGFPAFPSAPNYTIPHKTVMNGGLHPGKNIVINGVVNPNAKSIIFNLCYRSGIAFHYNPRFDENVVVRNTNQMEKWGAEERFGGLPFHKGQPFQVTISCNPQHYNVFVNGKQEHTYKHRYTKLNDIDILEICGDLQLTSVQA
0.599
